- METHOD: compound effects on multiple myeloma cell viability – MM1S, calcein-AM fluorescence, 48 h, basal, profiling panel (AID 1165); also: test concentration not given here
- PROTOCOL CONDITIONS: higher = more signal
Field: class. Source value: z-score. Ranges: bottom bin (below -2), middle bin (-2 to below 0.1), top bin (0.1 or more)

Please review the following examples before continuing.
# MOLECULE, CLASS LABEL
rows = [
    ("COc1ccc([Si](C)(C)[C@H]2[C@H](CCO)O[C@@]3(C(=O)N(Cc4cccc(N5CCOC5=O)c4)c4ccccc43)[C@@H]2C)cc1", "bottom bin"),
    ("COC(=O)[C@@]1(Cc2ccc(OC)cc2)[C@H]2c3cc(C(=O)N4CCCC4)n(CCc4ccc(O)c(OC)c4)c3C[C@H]2CN1C(=O)c1ccccc1", "middle bin"),
]

Into which category would you place NC(=O)NCC#Cc1ccc2c(c1)[C@]1(C(=O)N2)[C@H](c2ccc(O)cc2)N2[C@H](c3ccccc3)[C@H](c3ccccc3)OC(=O)[C@H]2[C@@H]1C(N)=O ?
top bin

Try the molecule C[N+](C)(C)CCCCCCNC(=O)[C@@H]1C[C@@H]2C(=O)NCC(=O)N2[C@@H]1c1cccc(OCCO)c1
bottom bin
